- TARGET OR SYSTEM: Recombinant full length human OGA enzyme (Homo sapiens, UniProt O60502)
- Construct: Recombinant full length human OGA enzyme was purchased from Origene
- METHOD DESCRIPTION: OGA Enzyme Inhibition Biochemical Assay
- RECORDED CONDITIONS: 1 nM OGA, 100 μM 4-MUGlcNAc (Km), pH 6.4, 90 minutes at room temperature, 10-point dose-response from 20 μM
I'd be grateful if you could share measured IC50 for these entries.
One number for each entry, in nM.

Please review the following examples before continuing.
- COc1cnc(CC2CCCN(Cc3cnc(NC(C)=O)s3)C2)nc1 (stereo not shown): 2
- CC(=O)Nc1ncc(CN2CC[C@H](Cc3ccc(F)c(F)c3)C2)s1 (stereo in doubt): 56
- CC(=O)Nc1nc(F)c(CN2CC[C@H](Cc3ccnc(C)c3)C2)s1: 4.8
- CC(=O)Nc1ncc(CN2CCCC(Cc3cccc(C)n3)C2)s1 (stereo not shown): 2

Report IC50 for every entry below.
1. CC(=O)Nc1ncc(CN2C[C@H](Cc3ncc(F)cn3)CC[C@@H]2C)s1 (single isomer, unassigned)
2. CC(=O)Nc1ncc(CN2CCCC(F)(Cc3ncc(F)cn3)C2)s1 (stereo not shown)
3. COc1cccc(CC2CCCN(Cc3cnc(NC(C)=O)s3)C2)n1 (stereo not shown)
4. CC(=O)Nc1ncc([C@@H](C)N2CCC[C@H](Cc3ncc(F)cn3)C2)s1 (single isomer, unassigned)

Output:
5
240
2
29

====

- TARGET OR SYSTEM: Recombinant full length human OGA enzyme (Homo sapiens, UniProt O60502)
- Construct: Recombinant full length human OGA enzyme was purchased from Origene
- Sequence (O60502 1-916): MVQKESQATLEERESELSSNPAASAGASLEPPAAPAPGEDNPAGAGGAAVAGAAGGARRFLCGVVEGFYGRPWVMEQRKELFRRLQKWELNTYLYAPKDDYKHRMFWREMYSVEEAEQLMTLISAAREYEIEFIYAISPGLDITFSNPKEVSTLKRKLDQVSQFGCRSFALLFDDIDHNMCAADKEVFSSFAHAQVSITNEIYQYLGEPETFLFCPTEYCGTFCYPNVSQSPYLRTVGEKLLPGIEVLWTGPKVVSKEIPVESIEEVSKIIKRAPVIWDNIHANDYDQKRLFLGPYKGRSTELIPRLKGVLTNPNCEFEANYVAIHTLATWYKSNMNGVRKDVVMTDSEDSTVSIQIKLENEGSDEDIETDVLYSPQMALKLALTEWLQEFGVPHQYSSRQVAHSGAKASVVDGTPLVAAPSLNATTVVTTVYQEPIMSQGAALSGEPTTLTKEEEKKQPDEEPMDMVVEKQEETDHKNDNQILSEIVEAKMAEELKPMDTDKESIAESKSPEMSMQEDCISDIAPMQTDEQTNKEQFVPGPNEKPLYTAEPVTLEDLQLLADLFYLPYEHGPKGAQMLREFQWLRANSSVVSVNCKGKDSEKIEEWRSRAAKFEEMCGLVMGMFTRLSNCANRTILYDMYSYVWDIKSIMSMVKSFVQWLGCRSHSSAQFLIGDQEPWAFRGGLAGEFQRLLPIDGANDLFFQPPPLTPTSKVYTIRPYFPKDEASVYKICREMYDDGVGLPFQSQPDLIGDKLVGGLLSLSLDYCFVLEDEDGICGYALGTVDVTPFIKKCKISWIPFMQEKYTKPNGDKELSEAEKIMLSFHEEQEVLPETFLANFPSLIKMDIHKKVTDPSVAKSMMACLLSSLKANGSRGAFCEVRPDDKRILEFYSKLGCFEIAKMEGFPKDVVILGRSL
- METHOD DESCRIPTION: OGA Enzyme Inhibition Biochemical Assay
- RECORDED CONDITIONS: 1 nM OGA, 100 μM 4-MUGlcNAc (Km), pH 6.4, 90 minutes at room temperature, 10-point dose-response from 20 μM
I'd be grateful if you could share measured IC50 for these entries.
Give bare numbers, in nM.

Please review the following examples before continuing.
• CC(=O)Nc1ncc(CN2CCC(F)(F)C(Cc3ncc(F)cn3)C2)s1 (stereo not drawn) = 12
• CC(=O)N(C)c1nc(F)c(CN2CC[C@H](Cc3ncc(F)cn3)C2)s1 = 79
• CC(=O)Nc1ncc(CN2CC[C@@H](Cc3ncc(F)cn3)C2)s1 (single isomer, unassigned) = 114
• COc1ccc(CC2CCN(Cc3cnc(NC(C)=O)s3)C2)nc1 (stereo not drawn) = 100
• COc1cncc(CC2CCN(Cc3cnc(NC(C)=O)s3)C2)c1 (stereo not drawn) = 69

Report IC50 for every entry below.
1. COc1ccnc(CC2CCN(Cc3cnc(NC(C)=O)s3)C2)c1 (stereo not drawn)
2. CC(=O)Nc1ncc(CN2CCCC(Cn3cc(C(C)=O)cn3)C2)s1 (stereo not drawn)
3. CC(=O)Nc1ncc(CN2CCCC(Cc3nccs3)C2)s1 (stereo not drawn)
4. CC(=O)Nc1ncc(CN2CC[C@H](Cc3ncc(C)cn3)C2)s1

Output:
1. 13
2. 15
3. 11
4. 14

====

I'd be grateful if you could share measured IC50 for these entries.
- TARGET OR SYSTEM: Recombinant full length human OGA enzyme (Homo sapiens)
- Construct: Recombinant full length human OGA enzyme was purchased from Origene
- METHOD DESCRIPTION: OGA Enzyme Inhibition Biochemical Assay
- RECORDED CONDITIONS: 1 nM OGA, 100 μM 4-MUGlcNAc (Km), pH 6.4, 90 minutes at room temperature, 10-point dose-response from 20 μM

Please review the following examples before continuing.
* CC(=O)Nc1nc(F)c(CN2CCC[C@H](Cc3ccc(C)nc3)C2)s1 | < 1 nM
* CC(=O)Nc1nc(F)c(CN2C[C@@H](Cc3ncc(F)cn3)C[C@@H]2C)s1 | < 1 nM

Lab note: next molecule to report on.
Task: Which IC50 value belongs to COc1cc(C[C@H]2C[C@H](C)N(Cc3sc(NC(C)=O)nc3F)C2)ncn1 ?
Output: < 1 nM

====

- TARGET OR SYSTEM: Recombinant full length human OGA enzyme (Homo sapiens)
- Construct: Recombinant full length human OGA enzyme was purchased from Origene
- Sequence (O60502 1-916): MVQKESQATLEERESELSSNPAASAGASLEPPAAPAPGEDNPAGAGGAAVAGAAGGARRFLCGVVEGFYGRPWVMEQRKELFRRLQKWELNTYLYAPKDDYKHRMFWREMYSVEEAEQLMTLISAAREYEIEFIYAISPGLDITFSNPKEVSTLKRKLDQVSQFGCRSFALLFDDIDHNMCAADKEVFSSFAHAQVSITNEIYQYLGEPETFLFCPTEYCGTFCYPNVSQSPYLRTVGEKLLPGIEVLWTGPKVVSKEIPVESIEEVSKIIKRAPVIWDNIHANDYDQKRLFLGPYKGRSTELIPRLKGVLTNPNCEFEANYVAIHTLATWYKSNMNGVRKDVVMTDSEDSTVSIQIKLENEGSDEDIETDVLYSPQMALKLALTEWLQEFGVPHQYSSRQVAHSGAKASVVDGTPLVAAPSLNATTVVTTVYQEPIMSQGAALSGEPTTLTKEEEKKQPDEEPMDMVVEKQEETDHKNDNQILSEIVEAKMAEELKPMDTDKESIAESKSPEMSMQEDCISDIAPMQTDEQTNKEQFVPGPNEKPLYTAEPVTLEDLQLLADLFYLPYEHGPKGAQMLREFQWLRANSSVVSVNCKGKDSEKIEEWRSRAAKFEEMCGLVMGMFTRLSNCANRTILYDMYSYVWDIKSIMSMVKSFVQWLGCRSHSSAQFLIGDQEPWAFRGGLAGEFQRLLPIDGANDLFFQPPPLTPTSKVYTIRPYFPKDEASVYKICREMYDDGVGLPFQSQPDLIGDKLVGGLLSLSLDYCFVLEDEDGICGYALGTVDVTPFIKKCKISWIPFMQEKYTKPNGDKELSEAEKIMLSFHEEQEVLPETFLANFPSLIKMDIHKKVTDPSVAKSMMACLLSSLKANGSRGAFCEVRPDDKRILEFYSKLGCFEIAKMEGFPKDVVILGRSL
- METHOD DESCRIPTION: OGA Enzyme Inhibition Biochemical Assay
- RECORDED CONDITIONS: 1 nM OGA, 100 μM 4-MUGlcNAc (Km), pH 6.4, 90 minutes at room temperature, 10-point dose-response from 20 μM
- Description: OGA Enzyme Inhibition Biochemical Assay Recombinant full length human OGA enzyme was purchased from Origene. 4-MUGlCNAc substrate was purchased from Sigma. All other reagents were purchased from Sigma or Fisher. […] Reactions were incubated for 90 minutes at room temperature and quenched with 40 μl of 3M glycine, pH 10 and read on a Perkin Elmer Envision plate reader (Ex: 355 nm/Em: 460 nm). […]
I'd be grateful if you could share measured IC50 for these entries.

- COc1nccc(CC2CCCN(Cc3cnc(NC(C)=O)s3)C2)c1C (centres unmarked) [Example 2-3]: 2 nM
- COc1cncc(CC2CCCN(Cc3cnc(NC(C)=O)s3)C2)c1 (centres unmarked) [Example 1-8]: 29 nM
- CC(=O)Nc1ncc(CN2CC[C@H](Cc3ncc(F)c(C)n3)C2)s1 [Example 3-11]: 11 nM
- COc1cc(C[C@@H]2C[C@H](C)N(Cc3sc(NC(C)=O)nc3F)C2)ncn1 [Example 3-44]: < 1 nM

Lab note: next compound to report on.
Task: Which IC50 value belongs to COc1cc(C[C@H]2CCCN(Cc3sc(NC(C)=O)nc3F)C2)ccn1 [Example 3-19] ?
Output: < 1 nM
